The compounds listed here are annotated with their IC50.
tested on: pancreatic cancer PANC-1 cells; assay: Cell proliferation assay (CCK-8); format: cell-based; settings: Homo sapiens, PANC-1, 72 h

>  <compound>
C[C@H]1CCC/C=C/[C@@H]2C[C@H](OC(=O)/C=C/c3ccc4c(c3)OCO4)C[C@H]2[C@H](O)/C=C/C(=O)O1

>  <assay-result>
100 to 1000 nM

$$$$

Given the entry Cc1ccc(/C=C/C(=O)O[C@@H]2C[C@@H]3[C@H](/C=C/CCC[C@H](C)OC(=O)/C=C/[C@H]3OC(=O)/C=C/c3ccc(C)cc3)C2)cc1 , report its measured IC50. 1000 to 10000 nM

Given the entry C[C@H]1CCC/C=C/[C@@H]2C[C@H](OC(=O)/C=C/c3ccccn3)C[C@H]2[C@H](OC(=O)/C=C/c2ccccn2)/C=C/C(=O)O1 [Compound 15c] , report its measured IC50. 100 to 1000 nM

Given the entry C[C@H]1CCC/C=C/[C@@H]2C[C@H](OC(=O)/C=C/c3cccc(F)c3)C[C@H]2[C@H](O)/C=C/C(=O)O1 , report its measured IC50. 100 to 1000 nM

Given the entry C[C@H]1CCC/C=C/[C@@H]2C[C@H](OC(=O)/C=C/c3ccccn3)C[C@H]2[C@H](O)/C=C/C(=O)O1 [Compound 15a] , report its measured IC50. < 100 nM

Measured values drawn from patent US20220064138A1 for this set.
